target_or_test_system: recombinant human MMP-1 (Homo sapiens, UniProt P03956)
Sequence (P03956 100-469): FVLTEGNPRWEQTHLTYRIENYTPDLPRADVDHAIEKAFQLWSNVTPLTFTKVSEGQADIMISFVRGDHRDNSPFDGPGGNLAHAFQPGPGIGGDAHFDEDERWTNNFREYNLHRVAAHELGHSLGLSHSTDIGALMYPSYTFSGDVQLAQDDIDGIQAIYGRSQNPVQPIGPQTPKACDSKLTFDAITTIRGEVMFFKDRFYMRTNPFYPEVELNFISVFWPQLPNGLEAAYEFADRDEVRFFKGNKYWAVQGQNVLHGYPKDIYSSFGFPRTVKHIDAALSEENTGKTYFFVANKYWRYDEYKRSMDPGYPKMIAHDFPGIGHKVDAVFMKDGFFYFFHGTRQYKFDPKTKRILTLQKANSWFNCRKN
method_summary: In vitro metalloprotease inhibition, fluorogenic peptide assay (MMP-1)
condition_info: recombinant human MMP-1, APMA activated; fluorogenic MCA peptide substrate 4 uM; pH 7.5, room temperature
Assign IC50 to each entry below.

compound	measured_metric	test_result
C[C@H](CS)NS(=O)(=O)c1ccc(Sc2ccccc2)cc1	IC50	> 10 µM

List the reported IC50 of each compound below.
1. C[C@H](CS)NS(=O)(=O)c1ccc(/N=N/c2ccc(N(C)C)cc2)cc1
2. CC(C)Oc1ccc(-c2ccc(S(=O)(=O)N(CCN3CCOCC3)[C@@H](CS)C(N)=O)cc2)cc1
3. C[C@H](CS)NS(=O)(=O)c1ccccc1
4. CCCOc1ccc(S(=O)(=O)N(C)[C@H](C)CS)cc1 [Example 37C]
5. CCCCOc1ccc(S(=O)(=O)N[C@@H](CS)C(=O)N[C@@H](Cc2ccccc2)C(=O)NC)cc1
6. CCCCOc1ccc(S(=O)(=O)N(Cc2ccncc2)[C@@H](CS)C(N)=O)cc1

Outgoing:
1: > 10 µM; 2: > 0.1 µM; 3: > 10 µM; 4: 1.5 µM; 5: > 10 µM; 6: 0.4 µM

Incoming: Requested read-out: IC50. Entry: C[C@H](CS)N(CCN1CCOCC1)S(=O)(=O)c1ccc(Oc2ccc(CCC(=O)O)cc2)cc1 [Example 118]
Outgoing: 7 µM

----------
target_or_test_system: recombinant human MMP-13 (Homo sapiens)
Construct: made in house
method_summary: In vitro metalloprotease inhibition, fluorogenic peptide assay (MMP-13)
Assay type: biochemical
condition_info: recombinant human MMP-13, APMA activated; fluorogenic MCA peptide substrate 4 uM; pH 7.5, room temperature
Labelling: IC50 reported below 400 nM becomes Criterion met; at or above becomes Criterion not met.

compound	target_or_test_system	group_label
Cc1ccccc1-c1ccc(S(=O)(=O)N(C)[C@H](C)CS)cc1	recombinant human MMP-13 (Homo sapiens)	Criterion not met
C[C@H](CS)NS(=O)(=O)c1ccc(Br)cc1	recombinant human MMP-13 (Homo sapiens)	Criterion not met
CCCCOc1ccc(S(=O)(=O)N[C@@H](CS)C(=O)NC)cc1	recombinant human MMP-13 (Homo sapiens)	Criterion met

Incoming: Consider COc1ccc(S(=O)(=O)N(Cc2ccccc2)C(CS)CC(C)C)cc1 (racemic) [Example 29F] . Does its IC50 lie strictly below 400 nM?
Outgoing: Criterion not met

Incoming: Is IC50 strictly under 400 nM for the entry `CCC(C)(C)c1ccc(S(=O)(=O)N[C@H](C)CS)cc1` ?
Outgoing: Criterion not met

Incoming: Say whether its IC50 is strictly beneath 400 nM. Entry: `C[C@H](CS)N(CCN1CCOCC1)S(=O)(=O)c1ccc(Oc2ccccc2)cc1`
Outgoing: Criterion met

Incoming: Please check: IC50 for `COC(=O)[C@H](CSSC[C@@H](C(=O)OC)N(C)S(=O)(=O)c1ccc(OC)cc1)N(C)S(=O)(=O)c1ccc(OC)cc1` , strictly under 400 nM or not?
Outgoing: Criterion met

Incoming: Dear colleague, could you confirm whether IC50 of COc1ccc(S(=O)(=O)N2CCCC2CS)cc1 (stereo not drawn) falls below 400 nM? Thanks.
Outgoing: Criterion not met

----------
target_or_test_system: recombinant human MMP-13 (Homo sapiens, UniProt P45452)
Construct: made in house
method_summary: In vitro metalloprotease inhibition, fluorogenic peptide assay (MMP-13)
Format: biochemical
condition_info: recombinant human MMP-13, APMA activated; fluorogenic MCA peptide substrate 4 uM; pH 7.5, room temperature
pIC50: −log10 of the molar value.
1 (yes) means recorded pIC50 is 7 or above; 0 (no) means it is below 7.

Incoming: Identify whether the reported pIC50 of the following compound is 7 or greater: COc1ccc(S(=O)(=O)N(Cc2ccccc2)[C@H](C)CS)cc1 [Example 12C]
Outgoing: 1 (yes)

Incoming: Reported pIC50 at or above 7? `CCCCOc1ccc(S(=O)(=O)N[C@@H](CS)C(=O)N(C)C)cc1`
Outgoing: 0 (no)

Incoming: Record `C[C@H](CS)N(C)S(=O)(=O)c1ccc(-c2ccccc2)cc1` ; criterion: pIC50 no lower than 7. Met?
Outgoing: 1 (yes)

Incoming: Does `CCCCOc1ccc(S(=O)(=O)N[C@@H](CS)C(=O)NCC(=O)O)cc1` have a reported pIC50 of at least 7?
Outgoing: 1 (yes)

Incoming: Can `CCCCOc1ccc(S(=O)(=O)N(CCC(C)C)[C@@H](CS)C(N)=O)cc1` be said to have pIC50 at or above 7?
Outgoing: 0 (no)

Incoming: Assess whether reported pIC50 for `C[C@H](CS)NS(=O)(=O)c1ccc(OC(F)(F)F)cc1` sits at 7 or higher.
Outgoing: 0 (no)

Incoming: Hi team, for `CCCCCc1ccc(S(=O)(=O)N(CCN2CCOCC2)[C@@H](CS)C(N)=O)cc1` , is the recorded pIC50 at or above 7?
Outgoing: 1 (yes)

Incoming: Identify whether the reported pIC50 of the following compound is 7 or greater: `C[C@H](CS)NS(=O)(=O)c1ccc(CNC(=O)c2ccccc2)s1`
Outgoing: 0 (no)
